# TEST SYSTEM: Leishmania donovani trypanothione reductase (LdTryR) (Leishmania donovani, UniProt P39050)
# Construct: recombinant LdTryR
# Sequence (P39050 whole entry): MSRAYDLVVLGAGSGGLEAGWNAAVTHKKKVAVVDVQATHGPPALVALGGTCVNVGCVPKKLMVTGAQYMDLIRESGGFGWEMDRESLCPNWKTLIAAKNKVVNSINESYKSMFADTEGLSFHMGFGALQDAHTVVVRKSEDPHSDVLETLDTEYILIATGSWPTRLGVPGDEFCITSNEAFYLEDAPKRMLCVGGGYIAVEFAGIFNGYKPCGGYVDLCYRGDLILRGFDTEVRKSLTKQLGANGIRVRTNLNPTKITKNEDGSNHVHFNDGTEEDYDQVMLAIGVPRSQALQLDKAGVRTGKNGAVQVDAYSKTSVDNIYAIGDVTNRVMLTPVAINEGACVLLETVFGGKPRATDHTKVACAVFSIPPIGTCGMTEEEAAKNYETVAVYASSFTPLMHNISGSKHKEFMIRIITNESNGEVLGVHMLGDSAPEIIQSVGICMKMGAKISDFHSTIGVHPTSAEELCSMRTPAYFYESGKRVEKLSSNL
# TEST NAME: spectrophotometric NADPH oxidation assay ([…] nm) on recombinant enzyme, Lineweaver-Burk kinetics
MEASURED ENDPOINT: pKi
By convention, pKi is the negative base-10 log of a molar concentration.

IN: Enter recorded pKi with Leishmania donovani trypanothione reductase (LdTryR) (Leishmania donovani, UniProt P39050) for CC[C@H](CC[C@@H](C)[C@H]1CC[C@H]2[C@@H]3CC=C4C[C@@H](O)CC[C@]4(C)[C@H]3CC[C@]12C)C(C)C [β-sitosterolCCL, β-sitosterol] here.
OUT: 5.07

These entries and their values trace back to paper PMC7686382.
